Molecular target: CETP (Homo sapiens)
Sequence (P11597 18-493): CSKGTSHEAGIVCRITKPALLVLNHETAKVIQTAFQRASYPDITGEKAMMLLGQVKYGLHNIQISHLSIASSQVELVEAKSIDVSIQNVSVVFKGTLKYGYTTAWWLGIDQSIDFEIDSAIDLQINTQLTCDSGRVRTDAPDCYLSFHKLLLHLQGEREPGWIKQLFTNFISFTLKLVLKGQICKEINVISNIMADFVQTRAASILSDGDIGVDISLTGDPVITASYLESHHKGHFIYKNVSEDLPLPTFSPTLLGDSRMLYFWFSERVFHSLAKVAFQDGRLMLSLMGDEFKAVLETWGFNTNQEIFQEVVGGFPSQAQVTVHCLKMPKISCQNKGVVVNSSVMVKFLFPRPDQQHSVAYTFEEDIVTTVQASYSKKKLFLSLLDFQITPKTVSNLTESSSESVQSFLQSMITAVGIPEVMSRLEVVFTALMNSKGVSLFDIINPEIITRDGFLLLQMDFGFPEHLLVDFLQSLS
Test: Assay of CETP Inhibition using Purified Components (Reconstituted Buffer Assay)
Assay type: biochemical
Parameters: made in house; host or cells: CHO cells (serum-free conditioned medium)
Conditions: Inhibition of CETP activity in reconstituted buffer assay; transfer of [3H]CE from HDL to LDL; read-out: IC50
Protocol: Assay of CETP Inhibition using Purified Components (Reconstituted Buffer Assay) The ability of compounds to inhibit CETP activity was assessed using an in vitro assay that measured the rate of transfer of radiolabeled cholesteryl ester ([^3H]CE) from HDL donor particles to LDL acceptor particles. […] After filtration, the radioactivity present in the precipitated LDL was measured by liquid scintillation counting. […] Examples of IC50 values determined by these methods are specified in Table 9.
# IC50 per record follows

Use these answered entries as a reference point.
Compound: OC(CN(Cc1ccccc1Cl)Cc1ccccc1C(F)(F)F)C(F)(F)F (centres unmarked) [compound 177]
Observed Value: > 100 µM
--
Compound: O=C(NCc1ccc(F)cc1)c1cccc(N(Cc2cccc(OC(F)(F)C(F)F)c2)CC(O)C(F)(F)F)c1 (centres unmarked) [Example 467]
Observed Value: > 50 µM
--
Compound: Cc1cccc(CN(Cc2ccc(F)cc2)CC(O)C(F)(F)F)c1 (centres unmarked) [compound 182]
Observed Value: > 100 µM
--
Compound: OC(CN(Cc1ccc(Oc2ccccc2)cc1)c1ccc(Oc2ccccc2)cc1)C(F)(F)F (centres unmarked) [Example 154]
Observed Value: > 100 µM

For the next question, use this compound.
// IC50 lookup, compound = OC(CN(Cc1ccc(C(F)(F)F)cc1)Cc1ccccc1Cl)C(F)(F)F (centres unmarked) [compound 174] , result: > 100 µM
